# System: MS2 coat protein
# Experimental protocol: apparent KD of MS2 coat protein; designed switch direction (-1 OFF switch, 1 ON switch): 1; higher = weaker reporter binding
# Condition notes: Eterna round: R95; input ligand: none
Property: apparent KD of MS2 coat protein (µM)

{"Sequence": "UCAAGCGUUUGGCUCGUUUUAUGUUUUGUACAUGAGGAUCACCCAUGUUUUGUACGAUCCAGUUAGAUGGUAUUUUG [JR_SHM208A_Sub039] (puzzle: Sensor for hsa-mir-208a)", "Unit label": "µM", "Reported measurement": 0.0568}
{"Sequence": "AUAAGGCAAGCUUUUUUCUCGUAGUGUAAACAUGAGGAUCACCCAUGUGCCCACCCUGGAUCUUUGAAUCGCAGAAC [Dianancete] (puzzle: Sensor for hsa-mir-208a)", "Unit label": "µM", "Reported measurement": 0.0273}
{"Sequence": "UAGAAUCUAUCUCAGGAUAUCAUGUCAAAGACAUGAGGAUCACCCAUGUACCAGGAAACUGGUUAUGAGAAGGGAGAUAGAUUCA [Mat - Same State 2 - Mod - D34] (puzzle: Same State 2)", "Unit label": "µM", "Reported measurement": 0.241}
